System: Mus musculus
Assay: Toxicity in mouse S180 cells allografted ICR mouse assessed as brain weight at 8.9 mg/kg, ip qd for 7 days relative to control
Format: organism-based, CCRF S-180
Set-up: dose 8.9 mg/kg, route intraperitoneal
Details: in vivo, 168 h
Residues, ends and D or L forms follow the SMILES beside them. *: point of attachment. OBn = c1ccc(CO*)cc1
parameter: Activity

CC(C)C[C@H](N)C(=O)N[C@@H](Cc1c[nH]c2ccccc12)C(=O)N[C@@H](Cc1c[nH]c2ccccc12)C(=O)OCc1ccccc1 (H-Leu-Trp-Trp-OBn) :: Non-toxic
N[C@@H](CS)C(=O)N[C@@H](Cc1c[nH]c2ccccc12)C(=O)N[C@@H](Cc1c[nH]c2ccccc12)C(=O)OCc1ccccc1 (H-Cys-Trp-Trp-OBn) :: Non-toxic
N[C@@H](CCC(=O)O)C(=O)N[C@@H](Cc1c[nH]c2ccccc12)C(=O)N[C@@H](Cc1c[nH]c2ccccc12)C(=O)OCc1ccccc1 (H-Glu-Trp-Trp-OBn) :: Non-toxic

###

What IC50 was measured for each of the following?
Tested on: HepG2
Test: Antiproliferative activity against human HepG2 cells after 48 hrs by MTT assay
Assay type: functional, cell-based
Conditions: HepG2, 48 h
Residues, ends and D or L forms follow the SMILES beside them. *: point of attachment. OBn = c1ccc(CO*)cc1
The figure you give is taken to be in µM; do not add the unit.

Note to self: IC50 recorded for O=C(N[C@@H](Cc1c[nH]c2ccccc12)C(=O)N[C@@H](Cc1c[nH]c2ccccc12)C(=O)OCc1ccccc1)[C@@H]1CCCN1 (H-Pro-Trp-Trp-OBn) was 91.7

Reported IC50 ( NCC(=O)N[C@@H](Cc1c[nH]c2ccccc12)C(=O)N[C@@H](Cc1c[nH]c2ccccc12)C(=O)OCc1ccccc1 (H-Gly-Trp-Trp-OBn) ) = 58.3

// field: IC50; key: CC[C@H](C)[C@H](N)C(=O)N[C@@H](Cc1c[nH]c2ccccc12)C(=O)N[C@@H](Cc1c[nH]c2ccccc12)C(=O)OCc1ccccc1 (H-Ile-Trp-Trp-OBn) ; value = 15.1

IC50 for N=C(N)NCCC[C@H](N)C(=O)N[C@@H](Cc1c[nH]c2ccccc12)C(=O)N[C@@H](Cc1c[nH]c2ccccc12)C(=O)OCc1ccccc1 (H-Arg-Trp-Trp-OBn) is 38.1

// N[C@@H](CCC(=O)O)C(=O)N[C@@H](Cc1c[nH]c2ccccc12)C(=O)N[C@@H](Cc1c[nH]c2ccccc12)C(=O)OCc1ccccc1 (H-Glu-Trp-Trp-OBn) : IC50 value = 22.3

In plain terms, N[C@@H](CS)C(=O)N[C@@H](Cc1c[nH]c2ccccc12)C(=O)N[C@@H](Cc1c[nH]c2ccccc12)C(=O)OCc1ccccc1 (H-Cys-Trp-Trp-OBn) has a documented IC50 of 35

Record NCCCC[C@H](N)C(=O)N[C@@H](Cc1c[nH]c2ccccc12)C(=O)N[C@@H](Cc1c[nH]c2ccccc12)C(=O)OCc1ccccc1 (H-Lys-Trp-Trp-OBn) , field IC50: 25.9

Input N[C@@H](Cc1cnc[nH]1)C(=O)N[C@@H](Cc1c[nH]c2ccccc12)C(=O)N[C@@H](Cc1c[nH]c2ccccc12)C(=O)OCc1ccccc1 (H-His-Trp-Trp-OBn) . Output IC50: 97.2

Noted for NC(=O)C[C@H](N)C(=O)N[C@@H](Cc1c[nH]c2ccccc12)C(=O)N[C@@H](Cc1c[nH]c2ccccc12)C(=O)OCc1ccccc1 (H-Asn-Trp-Trp-OBn) : its IC50 reads 11.9

For record N[C@@H](CO)C(=O)N[C@@H](Cc1c[nH]c2ccccc12)C(=O)N[C@@H](Cc1c[nH]c2ccccc12)C(=O)OCc1ccccc1 (H-Ser-Trp-Trp-OBn) the listed IC50 is 25.9

Entry C[C@@H](O)[C@H](N)C(=O)N[C@@H](Cc1c[nH]c2ccccc12)C(=O)N[C@@H](Cc1c[nH]c2ccccc12)C(=O)OCc1ccccc1 (H-Thr-Trp-Trp-OBn) ; IC50 = 155

Lab note: N[C@@H](CC(=O)O)C(=O)N[C@@H](Cc1c[nH]c2ccccc12)C(=O)N[C@@H](Cc1c[nH]c2ccccc12)C(=O)OCc1ccccc1 (H-Asp-Trp-Trp-OBn) gave IC50 of 122

Entry C[C@H](N)C(=O)N[C@@H](Cc1c[nH]c2ccccc12)C(=O)N[C@@H](Cc1c[nH]c2ccccc12)C(=O)OCc1ccccc1 (H-Ala-Trp-Trp-OBn) — recorded IC50 = 49.9

Item: CC(C)C[C@H](N)C(=O)N[C@@H](Cc1c[nH]c2ccccc12)C(=O)N[C@@H](Cc1c[nH]c2ccccc12)C(=O)OCc1ccccc1 (H-Leu-Trp-Trp-OBn) | IC50: 41.5

The recorded IC50 for Nc1ccn([C@@H]2O[C@H](CO)[C@@H](O)[C@@H]2O)c(=O)n1 is 38.1

###

Test system: B16
Test: Antiproliferative activity against mouse B16 cells after 48 hrs by MTT assay
Format: functional, cell-based
Conditions: B16, 48 h
Residues, ends and D or L forms follow the SMILES beside them. *: point of attachment. OBn = c1ccc(CO*)cc1
Labels assigned by IC50 range: I = under 30 µM, II = from 30 µM up to 60 µM, III = 60 µM and over

Given CSCC[C@H](N)C(=O)N[C@@H](Cc1c[nH]c2ccccc12)C(=O)N[C@@H](Cc1c[nH]c2ccccc12)C(=O)OCc1ccccc1 (H-Met-Trp-Trp-OBn) , name the class its IC50 places it in.
I

State the class of the compound shown: N[C@@H](CO)C(=O)N[C@@H](Cc1c[nH]c2ccccc12)C(=O)N[C@@H](Cc1c[nH]c2ccccc12)C(=O)OCc1ccccc1 (H-Ser-Trp-Trp-OBn)
II

Field: class (IC50) — entry: NCCCC[C@H](N)C(=O)N[C@@H](Cc1c[nH]c2ccccc12)C(=O)N[C@@H](Cc1c[nH]c2ccccc12)C(=O)OCc1ccccc1 (H-Lys-Trp-Trp-OBn)
II

Class label required: N[C@@H](CCC(=O)O)C(=O)N[C@@H](Cc1c[nH]c2ccccc12)C(=O)N[C@@H](Cc1c[nH]c2ccccc12)C(=O)OCc1ccccc1 (H-Glu-Trp-Trp-OBn)
I

For the record CC(C)[C@H](N)C(=O)N[C@@H](Cc1c[nH]c2ccccc12)C(=O)N[C@@H](Cc1c[nH]c2ccccc12)C(=O)OCc1ccccc1 (H-Val-Trp-Trp-OBn) , report the class its IC50 corresponds to.
II

Hi there! Could you help me figure out the category for N[C@@H](Cc1cnc[nH]1)C(=O)N[C@@H](Cc1c[nH]c2ccccc12)C(=O)N[C@@H](Cc1c[nH]c2ccccc12)C(=O)OCc1ccccc1 (H-His-Trp-Trp-OBn) please?
III

Category of N[C@@H](Cc1ccccc1)C(=O)N[C@@H](Cc1c[nH]c2ccccc12)C(=O)N[C@@H](Cc1c[nH]c2ccccc12)C(=O)OCc1ccccc1 (H-Phe-Trp-Trp-OBn) :
II

State the band of CC(C)C[C@H](N)C(=O)N[C@@H](Cc1c[nH]c2ccccc12)C(=O)N[C@@H](Cc1c[nH]c2ccccc12)C(=O)OCc1ccccc1 (H-Leu-Trp-Trp-OBn)
II

Please let me know in which category the item N[C@@H](Cc1c[nH]c2ccccc12)C(=O)N[C@@H](Cc1c[nH]c2ccccc12)C(=O)N[C@@H](Cc1c[nH]c2ccccc12)C(=O)OCc1ccccc1 (H-Trp-Trp-Trp-OBn) belongs.
III

###

Tested on: B16
Test: Antiproliferative activity against mouse B16 cells after 48 hrs by MTT assay
Type: functional, cell-based
Details: B16, 48 h
Residues, ends and D or L forms follow the SMILES beside them. *: point of attachment. OBn = c1ccc(CO*)cc1
Consider the following compounds; for each one, report its pIC50.
Here pIC50 is given on a logarithmic scale as minus log10 of the concentration in mol/L.

What the record says about C[C@@H](O)[C@H](N)C(=O)N[C@@H](Cc1c[nH]c2ccccc12)C(=O)N[C@@H](Cc1c[nH]c2ccccc12)C(=O)OCc1ccccc1 (H-Thr-Trp-Trp-OBn) : pIC50 is 3.74

// N[C@@H](CC(=O)O)C(=O)N[C@@H](Cc1c[nH]c2ccccc12)C(=O)N[C@@H](Cc1c[nH]c2ccccc12)C(=O)OCc1ccccc1 (H-Asp-Trp-Trp-OBn) : pIC50 value = 3.80

pIC50 in this record for NC(=O)C[C@H](N)C(=O)N[C@@H](Cc1c[nH]c2ccccc12)C(=O)N[C@@H](Cc1c[nH]c2ccccc12)C(=O)OCc1ccccc1 (H-Asn-Trp-Trp-OBn) : 4.86

The value of pIC50 measured for the compound NC(=O)CC[C@H](N)C(=O)N[C@@H](Cc1c[nH]c2ccccc12)C(=O)N[C@@H](Cc1c[nH]c2ccccc12)C(=O)OCc1ccccc1 (H-Gln-Trp-Trp-OBn) turned out to be 4.50

Value of pIC50 reported for the compound O=C(N[C@@H](Cc1c[nH]c2ccccc12)C(=O)N[C@@H](Cc1c[nH]c2ccccc12)C(=O)OCc1ccccc1)[C@@H]1CCCN1 (H-Pro-Trp-Trp-OBn) is 4.03

// CC[C@H](C)[C@H](N)C(=O)N[C@@H](Cc1c[nH]c2ccccc12)C(=O)N[C@@H](Cc1c[nH]c2ccccc12)C(=O)OCc1ccccc1 (H-Ile-Trp-Trp-OBn) : pIC50 value = 4.76

Record N[C@@H](Cc1ccc(O)cc1)C(=O)N[C@@H](Cc1c[nH]c2ccccc12)C(=O)N[C@@H](Cc1c[nH]c2ccccc12)C(=O)OCc1ccccc1 (H-Tyr-Trp-Trp-OBn) . Reported pIC50: 4.61

For N=C(N)NCCC[C@H](N)C(=O)N[C@@H](Cc1c[nH]c2ccccc12)C(=O)N[C@@H](Cc1c[nH]c2ccccc12)C(=O)OCc1ccccc1 (H-Arg-Trp-Trp-OBn) the compound record lists pIC50 as 4.43

Entry NCC(=O)N[C@@H](Cc1c[nH]c2ccccc12)C(=O)N[C@@H](Cc1c[nH]c2ccccc12)C(=O)OCc1ccccc1 (H-Gly-Trp-Trp-OBn) ; pIC50 = 3.80

Entry Nc1ccn([C@@H]2O[C@H](CO)[C@@H](O)[C@@H]2O)c(=O)n1 ; pIC50 = 4.31

The value of pIC50 measured for the compound N[C@@H](CS)C(=O)N[C@@H](Cc1c[nH]c2ccccc12)C(=O)N[C@@H](Cc1c[nH]c2ccccc12)C(=O)OCc1ccccc1 (H-Cys-Trp-Trp-OBn) turned out to be 4.48

So, C[C@H](N)C(=O)N[C@@H](Cc1c[nH]c2ccccc12)C(=O)N[C@@H](Cc1c[nH]c2ccccc12)C(=O)OCc1ccccc1 (H-Ala-Trp-Trp-OBn) ? Its pIC50 was 3.88
